target: Transmembrane protease serine 2 (Homo sapiens); test: Inhibition of full length TMPRSS2 (unknown origin) expressed in African green monkey Vero E6 cells using Boc-QAR-AMC as substrate incubated for 24 hrs by microplate reader analysis; format: cell-based
Sequence (O15393 1-255 limits assumed): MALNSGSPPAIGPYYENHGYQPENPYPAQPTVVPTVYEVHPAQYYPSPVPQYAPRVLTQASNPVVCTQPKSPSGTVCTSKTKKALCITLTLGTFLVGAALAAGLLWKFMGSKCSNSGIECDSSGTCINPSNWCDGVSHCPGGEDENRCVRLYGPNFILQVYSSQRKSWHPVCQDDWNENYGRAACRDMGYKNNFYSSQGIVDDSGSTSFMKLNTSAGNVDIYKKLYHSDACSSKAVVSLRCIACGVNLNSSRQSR
Sequence (O15393 256-492 limits assumed): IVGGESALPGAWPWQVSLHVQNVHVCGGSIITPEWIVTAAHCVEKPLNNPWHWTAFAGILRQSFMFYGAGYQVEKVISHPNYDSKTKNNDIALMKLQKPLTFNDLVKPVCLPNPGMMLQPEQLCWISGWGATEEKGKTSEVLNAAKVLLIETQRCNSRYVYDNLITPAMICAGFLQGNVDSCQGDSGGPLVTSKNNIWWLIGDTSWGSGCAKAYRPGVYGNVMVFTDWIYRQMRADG
parameter: pIC50
Answers are plain numbers, as −log10 of the molar value.

Give reported pIC50 value for "N=C(N)NCCC[C@H](NC(=O)[C@H](Cc1ccccc1)NC(=O)[C@H](CCC(N)=O)NC(=O)OCc1ccccc1)C(=O)c1nccs1" 9.23

---

biological target: Coagulation factor X (Homo sapiens, UniProt P00742); test: Inhibition of recombinant human C-terminal 10 his-tagged FXa extracted from baculovirus infected in Sf9 cells assessed as inhibition constant using Mca-RPKPVE-Nval-WRK(Dnp)-NH2 as substrate incubated for 1 hr by fluorescence based analysis
Sequence (P00742 41-179 limits assumed): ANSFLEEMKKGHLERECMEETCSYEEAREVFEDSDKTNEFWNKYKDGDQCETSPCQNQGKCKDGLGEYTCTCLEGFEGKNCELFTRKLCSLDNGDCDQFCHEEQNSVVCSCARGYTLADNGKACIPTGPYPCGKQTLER
Sequence (P00742 235-488 limits assumed): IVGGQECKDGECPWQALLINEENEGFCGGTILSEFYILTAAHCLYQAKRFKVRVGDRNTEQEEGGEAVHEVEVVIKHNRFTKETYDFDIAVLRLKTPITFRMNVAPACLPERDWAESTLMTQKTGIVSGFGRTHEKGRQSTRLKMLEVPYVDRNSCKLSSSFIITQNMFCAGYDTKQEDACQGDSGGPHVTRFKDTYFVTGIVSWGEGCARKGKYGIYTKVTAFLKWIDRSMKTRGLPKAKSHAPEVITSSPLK
parameter: Ki (nM)
One number for each entry, in nM.

CS(=O)(=O)N[C@@H](CCC(N)=O)C(=O)N[C@@H](Cc1ccccc1)C(=O)N[C@@H](CCCNC(=N)N)C(=O)c1nccs1 ... 9.2

Recall the reported Ki of "COCCC(=O)N[C@@H](CCC(N)=O)C(=O)N[C@@H](Cc1ccccc1)C(=O)N[C@@H](CCCNC(=N)N)C(=O)c1nc2ccccc2s1" when tested on Coagulation factor X (Homo sapiens, UniProt P00742). 102

---

Molecular target: Suppressor of tumorigenicity 14 protein (Homo sapiens, UniProt Q9Y5Y6)
Sequence (Q9Y5Y6 whole entry): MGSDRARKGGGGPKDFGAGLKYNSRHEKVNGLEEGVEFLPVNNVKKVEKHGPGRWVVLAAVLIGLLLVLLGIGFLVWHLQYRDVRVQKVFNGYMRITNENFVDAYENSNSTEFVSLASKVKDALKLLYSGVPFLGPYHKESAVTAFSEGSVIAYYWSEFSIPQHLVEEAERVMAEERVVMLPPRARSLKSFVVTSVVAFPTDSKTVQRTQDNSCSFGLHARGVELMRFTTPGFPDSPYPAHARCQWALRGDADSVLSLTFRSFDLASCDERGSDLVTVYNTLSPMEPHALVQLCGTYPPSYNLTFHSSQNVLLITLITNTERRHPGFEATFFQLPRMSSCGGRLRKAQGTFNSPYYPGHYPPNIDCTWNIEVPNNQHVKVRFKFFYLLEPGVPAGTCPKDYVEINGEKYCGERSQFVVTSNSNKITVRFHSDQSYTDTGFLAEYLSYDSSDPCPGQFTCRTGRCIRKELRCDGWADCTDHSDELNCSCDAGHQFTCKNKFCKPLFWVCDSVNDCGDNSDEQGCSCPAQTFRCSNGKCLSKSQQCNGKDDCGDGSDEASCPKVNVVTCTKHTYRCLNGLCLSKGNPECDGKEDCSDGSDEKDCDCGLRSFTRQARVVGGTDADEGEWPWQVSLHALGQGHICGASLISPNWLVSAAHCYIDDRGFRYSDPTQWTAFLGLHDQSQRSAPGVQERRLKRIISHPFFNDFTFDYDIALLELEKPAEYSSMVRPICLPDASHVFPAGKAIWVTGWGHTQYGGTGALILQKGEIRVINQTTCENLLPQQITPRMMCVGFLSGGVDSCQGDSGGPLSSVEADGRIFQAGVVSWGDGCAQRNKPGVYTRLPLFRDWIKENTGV
parameter: pKi
Give bare numbers, as −log10 of the molar value.

Give reported pKi value for "C[C@H](NC(=O)[C@H](CCC(N)=O)NC(=O)CCCCNC(=N)N)C(=O)N[C@@H](CCCNC(=N)N)C(=O)c1nc2ccccc2s1" 9.80
